Listed below are compounds with IC50 for MERTK (Homo sapiens, UniProt Q12866), each taken from published literature.
experimental-endpoint: IC50

[[record]]
entry_smiles = "CN1CCN(Cc2ccc(-c3ccc(C(=O)N4CC[C@@H](NC(=O)c5cc(-c6cnn(C)c6)cnc5N)C4)cc3)cc2)CC1"
experimental_endpoint = "IC50"
test_result = "10 to 100 nM"

[[record]]
entry_smiles = "Nc1ncc(-c2cnn(C3CCN(C(=O)C4CC4)CC3)c2)cc1-c1ncc(-c2ccc(Cl)cc2)o1"
experimental_endpoint = "IC50"
test_result = "> 10000 nM"

[[record]]
entry_smiles = "COc1cc2ncnc(Oc3ccc(NC(=O)c4cccn(-c5ccc(F)cc5)c4=O)cc3F)c2c2c1OCCO2"
experimental_endpoint = "IC50"
test_result = "≤ 50 nM"

[[record]]
entry_smiles = "COCCOc1nc(Nc2ccc(CN3CCN(C)CC3)cc2)nc2[nH]cc(-c3ccc(C(F)(F)F)cc3)c12"
experimental_endpoint = "IC50"
test_result = "> 1000 nM"


* * *

pIC50: −log10 of the molar value.
Listed below are molecules with pIC50 for MERTK (Homo sapiens, UniProt Q12866), each taken from published literature.
experimental-endpoint: pIC50

[[record]]
molecule = "CNc1cc(-c2cc([C@H]3CC[C@H](O)CC3)n3nc(N[C@@H](C)COC)ncc23)ccn1"
experimental_endpoint = "pIC50"
test_result = "≥ 7.00"

[[record]]
molecule = "COc1cc2nccc(Oc3cnc(NC(=O)c4nn(C5CCOCC5)cc(-c5ccc(C)cc5)c4=O)nc3)c2cc1OC"
experimental_endpoint = "pIC50"
test_result = 8.30

[[record]]
molecule = "Cn1cc(-c2cnc(N)c(C(=O)N[C@@H]3CCN(C(=O)c4ccc(-c5cnn(C6CCOCC6)c5)cc4)C3)c2)cn1"
experimental_endpoint = "pIC50"
test_result = "< 6.00"

[[record]]
molecule = "CN(c1ccc(-c2ccc(C(=O)N3CC[C@@H](NC(=O)c4cc(-c5cnn(C)c5)cnc4N)C3)cc2)cc1)c1ccc([N+](=O)[O-])cc1"
experimental_endpoint = "pIC50"
test_result = "6.00 to 7.00"

[[record]]
molecule = "CCn1cc(C(=O)Nc2ccc(Oc3ccnc4cc(OCCCN5CCCCC5)c5c(c34)OCCO5)c(F)c2)c(=O)n(-c2ccc(F)cc2)c1=O"
experimental_endpoint = "pIC50"
test_result = "≥ 7.30"

[[record]]
molecule = "COC[C@H](C)Nc1ncc2c(-c3cncc(C(=O)N4CCOCC4)c3)cc([C@H]3CC[C@H](O)CC3)n2n1"
experimental_endpoint = "pIC50"
test_result = "≥ 7.00"

[[record]]
molecule = "CC(=O)Nc1cc(Oc2ccc(NC(=O)c3c4n(n(-c5ccccc5)c3=O)CCOC4)cc2)ccn1"
experimental_endpoint = "pIC50"
test_result = 7.36

[[record]]
molecule = "CCOc1cc2nccc(Oc3ccc(NC(=O)c4cn(C)c(=O)n(-c5ccc(F)cc5)c4=O)c(Cl)c3)c2c2c1OCCO2"
experimental_endpoint = "pIC50"
test_result = "≥ 7.30"

[[record]]
molecule = "NC(=O)c1ccc(-c2n[nH]c3ncc(-c4ccc5c(c4)CCC(N4CCCC4)CC5)cc23)cc1C(F)(F)F (stereo not shown)"
experimental_endpoint = "pIC50"
test_result = "6.00 to 7.00"

[[record]]
molecule = "COC[C@H](C)Nc1ncc2c(OC3CCOCC3)ncc([C@H]3CC[C@@](O)(C(F)(F)F)CC3)c2n1"
experimental_endpoint = "pIC50"
test_result = "≥ 7.00"

[[record]]
molecule = "CS(=O)(=O)N1CC[C@H](Nc2ncc3c(OC4CCOCC4)ncc([C@H]4CC[C@H](O)CC4)c3n2)C1"
experimental_endpoint = "pIC50"
test_result = "6.00 to 7.00"

[[record]]
molecule = "CN1CCN(C(=O)Cc2ccc(-c3cccc(C(=O)N4CC[C@@H](NC(=O)c5cc(-c6cnn(C)c6)cnc5N)C4)c3)cc2)CC1"
experimental_endpoint = "pIC50"
test_result = "< 6.00"

[[record]]
molecule = "COC[C@H](C)Nc1ncc2c(-c3cnn(C4COC4)c3)cc([C@H]3CC[C@](O)(C(C)C)CC3)n2n1"
experimental_endpoint = "pIC50"
test_result = "≥ 7.00"

[[record]]
molecule = "C[C@@H](CC(F)(F)F)Nc1ncc2c(C3=CCN(C(=O)OC(C)(C)C)CC3)cc([C@H]3CC[C@H](O)CC3)n2n1"
experimental_endpoint = "pIC50"
test_result = "≥ 7.00"

[[record]]
molecule = "CNC(=O)c1ccc(-c2cc([C@H]3CC[C@H](O)CC3)n3nc(N[C@@H](C)CC(F)(F)F)ncc23)cn1"
experimental_endpoint = "pIC50"
test_result = "≥ 7.00"

[[record]]
molecule = "Cn1cc(-c2cnc(N)c(C(=O)N[C@@H]3CCN(Cc4cccc(-c5cccc(CO)c5)c4)C3)c2)cn1"
experimental_endpoint = "pIC50"
test_result = "6.00 to 7.00"

[[record]]
molecule = "CC[C@H](C)NC1=NC2C([C@H]3CC[C@H](O)CC3)=CN(C(C)C)C(=O)C2C=N1 (stereo partly shown)"
experimental_endpoint = "pIC50"
test_result = "≥ 7.00"

[[record]]
molecule = "Cc1cc(-c2n[nH]c3ncc(-c4ccc5c(c4)CC[C@@H](N4CCCC4)CC5)cc23)cc(C)c1C(=O)N1CCNCC1"
experimental_endpoint = "pIC50"
test_result = "6.00 to 7.00"

[[record]]
molecule = "Cn1cc(-c2cnc(N)c(C(=O)N[C@@H]3CCN(C(=O)c4ccc5ccccc5c4)C3)c2)cn1"
experimental_endpoint = "pIC50"
test_result = "6.00 to 7.00"

[[record]]
molecule = "Cn1cc(-c2cnc(N)c(C(=O)N[C@@H]3CCN(C(=O)c4ccc(-c5cc6ccccc6s5)cc4)C3)c2)cn1"
experimental_endpoint = "pIC50"
test_result = "< 6.00"

[[record]]
molecule = "Cn1cc(-c2cnc(N)c(C(=O)N[C@@H]3CCN(C(=O)c4cccc(-c5cccc(C(=O)N6CCSCC6)c5)c4)C3)c2)cn1"
experimental_endpoint = "pIC50"
test_result = "< 6.00"

[[record]]
molecule = "Cn1cc(-c2cnc(N)c(C(=O)N[C@@H]3CCN(C(=O)/C=C/c4cccc(Br)c4)C3)c2)cn1"
experimental_endpoint = "pIC50"
test_result = "< 6.00"

[[record]]
molecule = "COC(=O)[C@H]1C[C@@H](NC(=O)c2cc(-c3cnn(C)c3)cnc2N)CN1C(=O)c1ccc(-c2ccccc2)cc1"
experimental_endpoint = "pIC50"
test_result = "6.00 to 7.00"

[[record]]
molecule = "C[C@@H]1CCCN1C1CCc2ccc(-c3cnc4[nH]nc(-c5ccc(S(=O)(=O)C6CC6)cc5)c4c3)cc2CC1 (stereo partly shown)"
experimental_endpoint = "pIC50"
test_result = "6.00 to 7.00"

[[record]]
molecule = "COCCn1cc(-c2cc([C@H]3CC[C@H](O)CC3)n3nc(N[C@@H](C)CC(F)(F)F)ncc23)cn1"
experimental_endpoint = "pIC50"
test_result = "≥ 7.00"

[[record]]
molecule = "CCC[C@@H](C)Nc1ncc2c(OC3CCN(C)CC3)ncc([C@H]3CC[C@H](O)CC3)c2n1"
experimental_endpoint = "pIC50"
test_result = "≥ 7.00"

[[record]]
molecule = "CC(C)(O)c1ccc(-c2n[nH]c3ncc(-c4cc5c(cn4)CCC(N4CCCC4)CC5)cc23)cc1Cl (stereo not shown)"
experimental_endpoint = "pIC50"
test_result = "6.00 to 7.00"

[[record]]
molecule = "COC[C@H](C)Nc1ncc2c(OC3CCOCC3)ncc(-c3ccc(S(C)(=O)=O)cc3)c2n1"
experimental_endpoint = "pIC50"
test_result = "6.00 to 7.00"


* * *

Listed below are molecules with IC50 for MERTK (Homo sapiens), each taken from published literature.
experimental-endpoint: IC50

[[record]]
molecule = "COCC(C)Nc1ncc2c(-c3ccc4ncoc4c3)cc(C3CCC(O)CC3)n2n1 (stereo not drawn)"
test_result = "≤ 0.1 µM"

[[record]]
molecule = "Cn1cc(-c2cnc(N)c(C(=O)N[C@@H]3CCN(C(=O)c4ccc(Oc5ccc(CN6CCC[C@@H]6CO)cc5)cc4)C3)c2)cn1"
test_result = "> 1 µM"

[[record]]
molecule = "Nc1ncc(-c2cn[nH]c2)cc1-c1nnc(-c2c(Cl)cccc2Cl)o1"
test_result = "< 0.5 µM"


* * *

pIC50: −log10 of the molar value.
Listed below are molecules with pIC50 for UniProt:Q12866, each taken from published literature.
experimental-endpoint: pIC50

[[record]]
entry_smiles = "Cn1cc(-c2cnc(N)c(C(=O)N[C@@H]3CCN(C(=O)c4ccc(-c5ccccc5Cl)nc4)C3)c2)cn1"
experimental_endpoint = "pIC50"
test_result = "6.00 to 7.00"

[[record]]
entry_smiles = "CC[C@H](C)Nc1ncc2c(O[C@H]3CC[C@H](N)CC3)ncc([C@H]3CC[C@H](O)CC3)c2n1"
experimental_endpoint = "pIC50"
test_result = "≥ 7.00"

[[record]]
entry_smiles = "COC[C@H](C)Nc1ncc2c(-c3ccnc(N4CCOCC4)c3)cc([C@H]3CC[C@@H](O)CC3)n2n1"
experimental_endpoint = "pIC50"
test_result = "≥ 7.00"

[[record]]
entry_smiles = "Cc1nnc(C(C)(C)n2cc(-c3cc([C@H]4CC[C@H](O)CC4)n4nc(N[C@@H](C)COC(F)F)ncc34)cn2)o1"
experimental_endpoint = "pIC50"
test_result = "≥ 7.00"

[[record]]
entry_smiles = "COC[C@H](C)Nc1ncc2c(O[C@@H]3CCNCC3(F)F)ncc([C@H]3CC[C@H](O)CC3)c2n1"
experimental_endpoint = "pIC50"
test_result = "≥ 7.00"

[[record]]
entry_smiles = "CC(C)(C)S(=O)(=O)c1ccc(-c2n[nH]c3ncc(-c4ccc5c(c4)CC[C@@H](N4C6COCC4C6)CC5)cc23)cc1"
experimental_endpoint = "pIC50"
test_result = "6.00 to 7.00"

[[record]]
entry_smiles = "Cn1cc(-c2cnc(N)c(C(=O)N[C@@H]3CCN(C(=O)c4ccc(-c5ccc(C(F)(F)F)cc5)cc4)C3)c2)cn1"
experimental_endpoint = "pIC50"
test_result = "< 6.00"

